assay system: Streptavidin (Streptomyces avidinii)
measurement protocol: streptavidin binders on small-molecule microarray, primary screen, artefact control for SMM compound annotation, biophysical, 635/667 nm fluorescence (AID 1147);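 note: signal reflects streptavidin binding to arrayed compounds as a control protein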
experimental context: streptavidin binding, higher = more signal
Entries and their composite z-score values follow.
No unit in the answer, only the number.

- compound: "COC(=O)[C@H](Cc1ccccc1)NC(=O)[C@@H](C)CO"
  composite z-score: 0.311

Q) Give me measured composite z-score, please, for this compound: O=C1[C@H]2[C@H]3[C@H](O)[C@H](O)CC(=NO[C@@H]4O[C@H](CO)[C@@H](O)[C@H](O)[C@H]4O)[C@@H]3CC[C@H]2C(=O)N1C[C@@H]1CCCO1
A) 0.0066

Q) Give me measured composite z-score, please, for this compound: COc1ccc(COC(=O)NN=C2C[C@@H](O)[C@@H](O)[C@@H]3[C@@H]4C(=O)N(c5cccc(Oc6ccccc6)c5)C(=O)[C@@H]4CC[C@H]23)cc1
A) 0.993

Q) Give me measured composite z-score, please, for this compound: C[C@H]1C=CCC(=O)OC[C@H](C)C(=O)N2CCC[C@H]2C(=O)OC1
A) -0.176

Q) Give me measured composite z-score, please, for this compound: COC(=O)[C@H](C)NC(=O)CCC1CC(OC(=O)NCc2ccc3c(c2)OCO3)CC2(CCCC(COC(=O)NCCC(C)C)O2)O1 (some centres undefined)
A) 0.232

Q) Give me measured composite z-score, please, for this compound: COc1ccc(OC[C@@H]2CC3[C@@H](c4ccc(Br)cc4)[C@H](C)CC[C@H]3C(=O)O2)cc1 (some centres undefined)
A) 0.0139
